# test-target: HLA-DRB1*0701 (Homo sapiens, UniProt P01903+P01911, A100R/A102G/A103Q/D57E/D86V/E43K/F76Y/K127E/L162R/M171V/P40G/Q125H/Q99D/R33Q/R42Y/R54Q/S133A/S66F/T210M/V115G/Y107V/Y59L/Y89S)
# procedure-text: biochemical
# Format: binding
# details: binding inhibition assay; NB = non-binder (no dose-dependent inhibition); read-out: DRB1*0701 IC50
pIC50: −log10 of the molar value. Where a SMILES comes first, the peptide text is derived from it.
experimental-readout: pIC50

{"compound": "CC[C@H](C)[C@H](NC(=O)[C@H](CC(N)=O)NC(=O)[C@H](CCC(N)=O)NC(=O)[C@H](CC(N)=O)NC(=O)[C@H](CC(N)=O)NC(=O)[C@H](Cc1ccccc1)NC(=O)[C@@H](NC(=O)[C@H](CS)NC(=O)[C@H](CC(C)C)NC(=O)[C@H](Cc1ccc(O)cc1)NC(=O)[C@H](CC(=O)O)NC(=O)[C@@H](N)Cc1ccc(O)cc1)C(C)C)C(=O)N[C@H](C(=O)N[C@@H](CO)C(=O)N[C@@H](CC(=O)O)C(=O)N[C@@H](CCCCN)C(=O)N[C@@H](CC(N)=O)C(N)=O)[C@@H](C)O [RIPR_007] (H-YDYLCVFNNQNITSDKN-NH2)", "experimental-readout": "pIC50", "observed-result": 5.52}
{"compound": "CC[C@H](C)[C@H](NC(=O)[C@H](Cc1ccc(O)cc1)NC(=O)[C@@H](NC(=O)[C@H](Cc1ccc(O)cc1)NC(=O)[C@H](CO)NC(=O)CNC(=O)[C@H](CCSC)NC(=O)[C@H](CCCCN)NC(=O)[C@H](CCCCN)NC(=O)[C@H](CC(N)=O)NC(=O)[C@H](CC(C)C)NC(=O)[C@H](CC(N)=O)NC(=O)[C@@H](NC(=O)[C@H](CC(C)C)NC(=O)[C@H](CC(C)C)NC(=O)[C@H](CC(C)C)NC(=O)[C@H](CCC(=O)O)NC(=O)[C@@H](N)CO)[C@@H](C)O)[C@@H](C)CC)C(N)=O [RH5_010B] (H-SELLLTNLNKKMGSYIYI-NH2)", "experimental-readout": "pIC50", "observed-result": 4.38}
